Data credit: patent US7109193B2

- targetUnderTest: human vasopressin V2 receptor subtype (Homo sapiens, UniProt P30518)
- Construct: host or cells: CHO cells (pZeoSV vector)
- Sequence (P30518 whole entry): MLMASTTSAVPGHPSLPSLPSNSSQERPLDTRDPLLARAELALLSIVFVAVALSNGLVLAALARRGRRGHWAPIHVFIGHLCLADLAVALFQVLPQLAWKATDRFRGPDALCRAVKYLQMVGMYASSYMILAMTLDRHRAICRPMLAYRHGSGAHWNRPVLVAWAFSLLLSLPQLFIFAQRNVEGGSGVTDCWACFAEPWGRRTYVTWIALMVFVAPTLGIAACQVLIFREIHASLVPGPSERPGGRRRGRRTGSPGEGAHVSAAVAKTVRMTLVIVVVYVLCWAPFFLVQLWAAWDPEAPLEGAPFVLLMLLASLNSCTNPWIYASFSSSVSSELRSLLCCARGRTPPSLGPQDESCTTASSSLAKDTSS
- protocolDetails: Vasopressin binding in Chinese Hamster Ovary cell membranes expressing human vasopressin V2 subtype receptors
- testSettings: 100 nM, CHO cell membranes, [3H]arginine vasopressin, values without parentheses
measurementKind: inhibition at 0.1 µM (%)
Respond numerically; units are % and should not be typed.

> print(dat)
                                   molecule                           targetundertest       measurementkind  reportedvalue
1  COc1cccc(-c2ccc(C(=O)N3Cc4ccc(C(=O)NCCCn5ccnc5)n4Cc4ccccc43)cc2OC)c1  human vasopressin V2 receptor subtype (Homo sapiens, UniProt P30518)  inhibition at 0.1 µM              8
2  COc1cccc(-c2ccc(C(=O)N3Cc4ccc(C(=O)NCCCn5ccnc5)n4Cc4ccccc43)cc2C)c1  human vasopressin V2 receptor subtype (Homo sapiens, UniProt P30518)  inhibition at 0.1 µM              8
3  COc1cc(C(=O)N2Cc3ccc(C(=O)NCCC4CCCN4C)n3Cc3ccccc32)ccc1-c1ccccc1C (centres unmarked)  human vasopressin V2 receptor subtype (Homo sapiens, UniProt P30518)  inhibition at 0.1 µM             20
4  COc1ccccc1-c1ccc(C(=O)N2Cc3ccc(C(=O)NCCC4CCCN4C)n3Cc3ccccc32)cc1C (centres unmarked)  human vasopressin V2 receptor subtype (Homo sapiens, UniProt P30518)  inhibition at 0.1 µM             20

# context switch: different molecule, same inhibition at 0.1 µM
*Q* # get_value(readout= inhibition at 0.1 µM, system= human vasopressin V2 receptor subtype (Homo sapiens, UniProt P30518)) for COc1cccc(-c2ccc(C(=O)N3Cc4ccc(C(=O)N(C)C5CCN(C)C5)n4Cc4ccccc43)cc2C)c1 (centres unmarked)
*A* 8

* * *

- targetUnderTest: human oxytocin receptor (Homo sapiens)
- Construct: host or cells: CHO cells (pcDNA3.1 vector)
- Sequence (P30559 whole entry): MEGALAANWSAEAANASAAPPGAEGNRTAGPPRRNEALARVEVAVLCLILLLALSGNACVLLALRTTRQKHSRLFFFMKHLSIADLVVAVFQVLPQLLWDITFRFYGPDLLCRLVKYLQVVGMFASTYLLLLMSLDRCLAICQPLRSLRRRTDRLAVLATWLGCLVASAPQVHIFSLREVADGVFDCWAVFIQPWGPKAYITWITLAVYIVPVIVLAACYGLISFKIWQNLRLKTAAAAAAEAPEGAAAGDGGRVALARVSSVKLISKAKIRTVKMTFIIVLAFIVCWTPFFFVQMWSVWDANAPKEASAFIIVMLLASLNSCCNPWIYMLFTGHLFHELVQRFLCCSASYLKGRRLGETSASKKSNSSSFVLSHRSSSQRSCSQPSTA
- protocolDetails: Oxytocin binding in Chinese Hamster Ovary cell membranes expressing human oxytocin receptors
- testSettings: 100 nM, CHO cell membranes, [3H]oxytocin, values without parentheses, read-out: OT % inhibition @ 100% nM
- Protocol: Oxytocin Binding in Chinese Hamster Ovary Cell Membranes Expressing Human Oxytocin Receptors The trypsin is removed by aspiration and the cells dislodged by tapping. Cell Culture medium (e.g. 30 mL for 1:30 split) is immediately added and mixed well to inactivate trypsin. […] The filter paper is thoroughly dried (7–12 min. in a microwave oven) and impregnated with MeltiLex B/H melt-on scintillation wax sheets and the radioactivity counted in a betaplate scintillation counter. […]
Think of 80% as a floor: if inhibition at 0.1 µM stands on it or above, it is met; beneath it, not met.

Observe how each entry below is paired with its result.
> print(dat)
                                   compound                         targetundertest  assignedcategory
1  COc1ccccc1-c1ccc(C(=O)N2Cc3ccc(C(=O)N(C)C4CCN(C)CC4)n3Cc3ccccc32)cc1C  human oxytocin receptor (Homo sapiens)               met
2  CN(C)CCCNC(=O)c1ccc2n1Cc1ccccc1N(C(=O)c1ccc(-c3cccc4ccccc34)cc1Cl)C2  human oxytocin receptor (Homo sapiens)           not met
3  COc1cccc(-c2ccc(C(=O)N3Cc4ccc(C(=O)N5CCN(CCN6CCOCC6)CC5)n4Cc4ccccc43)cc2OC)c1  human oxytocin receptor (Homo sapiens)               met
4  COc1cc(-c2ccccc2C)c(Cl)cc1C(=O)N1Cc2ccc(C(=O)N(C)C3CCN(C)C3)n2Cc2ccccc21 (centres unmarked)  human oxytocin receptor (Homo sapiens)               met

*Q* Check this compound for inhibition at 0.1 µM at or above 80%: CN1CCN(C(=O)c2ccc3n2Cc2ccccc2N(C(=O)c2ccc(-c4cccc5ccccc45)cc2Cl)C3)CC1
*A* not met

*Q* Further, for Cc1ccccc1-c1ccc(C(=O)N2Cc3ccc(C(=O)N4CCCN(C)CC4)n3Cc3ccccc32)cc1C ?
*A* met

*Q* Further, for O=C(c1ccc(-c2ccccc2)nc1)N1Cc2cccn2Cc2ccccc21 ?
*A* not met

*Q* Further, for Cc1ccccc1-c1ccc(C(=O)N2Cc3ccc(C(=O)N4CCC(N5CCCCC5)CC4)n3Cc3ccccc32)cc1 ?
*A* not met

*Q* Further, for Cc1ccccc1-c1ccc(C(=O)N2Cc3ccc(C(=O)N4CCN(CCN(C)C)CC4)n3Cc3ccccc32)cc1C ?
*A* met

*Q* Further, for COc1ccccc1-c1ccc(C(=O)N2Cc3ccc(C(=O)NCCN4CCCCC4)n3Cc3ccccc32)cc1C ?
*A* not met
